EXPERIMENT DESCRIPTION: Permeability and efflux ratio in Caco-2 cells
Assay type: in vitro ADME
MEASUREMENT PARAMETERS: human; Caco-2, 10 µM, 120-min incubation, 37 °C
OBSERVABLE: Papp B→A at 120 min, 10 µM (×10⁻⁶ cm/s)
Your answer is read as ×10⁻⁶ cm/s, so omit the unit and give the number.

Qu. Give the measured Papp B→A at 120 min, 10 µM of `C[C@H]1O[C@@H](O[C@H]2[C@@H](O)C[C@H](O[C@H]3[C@@H](O)C[C@H](O[C@H]4CC[C@@]5(C)[C@H](CC[C@@H]6[C@@H]5C[C@@H](O)[C@]5(C)[C@@H](C7=CC(=O)OC7)CC[C@]65O)C4)O[C@@H]3C)O[C@@H]2C)C[C@H](O)[C@@H]1O` .
Ans. 14.6

----------
EXPERIMENT DESCRIPTION: Permeability and efflux ratio in Caco-2 cells
Type: in vitro ADME
MEASUREMENT PARAMETERS: human; Caco-2, 10 µM, 120-min incubation, 37 °C
Give Papp A→B at 120 min, 10 µM for every item shown.

Qu. Give the measured Papp A→B at 120 min, 10 µM of CC(C)NCC(O)COc1cccc2ccccc12 (centres unmarked) [Propranolol] .
Ans. 29.4 ×10⁻⁶ cm/s

Qu. Give the measured Papp A→B at 120 min, 10 µM of C[C@H]1O[C@@H](O[C@H]2[C@@H](O)C[C@H](O[C@H]3[C@@H](O)C[C@H](O[C@H]4CC[C@@]5(C)[C@H](CC[C@@H]6[C@@H]5C[C@@H](O)[C@]5(C)[C@@H](C7=CC(=O)OC7)CC[C@]65O)C4)O[C@@H]3C)O[C@@H]2C)C[C@H](O)[C@@H]1O [Digoxin] .
Ans. 0.65 ×10⁻⁶ cm/s
